Biological target: T1, hFcRn on hFcRn-expressing HEK293 cells (human, UniProt P55899 24-365; P61769 21-119)
T1 construct: whole, on cells; also called hFcRn HEK293
T1 sequence (P55899 24-365 limits assumed, chain 1 of 2): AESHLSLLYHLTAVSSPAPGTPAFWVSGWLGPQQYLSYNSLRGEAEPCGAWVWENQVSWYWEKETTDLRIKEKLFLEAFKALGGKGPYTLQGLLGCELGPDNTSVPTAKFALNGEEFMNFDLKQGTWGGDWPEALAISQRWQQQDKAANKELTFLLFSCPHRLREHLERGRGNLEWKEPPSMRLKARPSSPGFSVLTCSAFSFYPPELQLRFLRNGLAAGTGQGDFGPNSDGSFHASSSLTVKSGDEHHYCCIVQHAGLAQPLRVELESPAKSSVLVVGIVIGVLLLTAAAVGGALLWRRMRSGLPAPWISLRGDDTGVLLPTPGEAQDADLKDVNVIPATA
T1 sequence (P61769 21-119 limits assumed, chain 2 of 2): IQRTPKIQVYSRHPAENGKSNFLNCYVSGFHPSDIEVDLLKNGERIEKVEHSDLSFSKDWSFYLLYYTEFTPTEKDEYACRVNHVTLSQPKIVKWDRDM
Assay: FACS on hFcRn HEK293 cells, 10 nM antibody, pH 6.0
reported.metric: MFI (MFI)
Give bare numbers, in MFI.

Before answering, review these 2 worked examples.
HL161AN variant No. 3 (LC:N25S, HC:Q82S) (antibody, human IgG1, V domains shown, Variable domains only) VL: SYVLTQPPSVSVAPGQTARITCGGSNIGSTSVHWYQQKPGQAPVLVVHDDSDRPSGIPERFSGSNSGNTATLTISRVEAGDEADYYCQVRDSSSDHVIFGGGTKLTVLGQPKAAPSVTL VH: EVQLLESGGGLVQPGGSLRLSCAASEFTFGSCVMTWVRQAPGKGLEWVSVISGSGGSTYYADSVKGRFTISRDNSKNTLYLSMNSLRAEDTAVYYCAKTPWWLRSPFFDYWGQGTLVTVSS ... 2440
HL161AN variant No. 12 (LC:N25Q, HC:C32S) (antibody, V domains shown, also called HL161ANQ; #12 (HL161ANQ)) VL: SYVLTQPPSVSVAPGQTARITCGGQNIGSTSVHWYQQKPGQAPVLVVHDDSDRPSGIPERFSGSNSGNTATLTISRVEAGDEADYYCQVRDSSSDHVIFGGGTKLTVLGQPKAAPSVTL VH: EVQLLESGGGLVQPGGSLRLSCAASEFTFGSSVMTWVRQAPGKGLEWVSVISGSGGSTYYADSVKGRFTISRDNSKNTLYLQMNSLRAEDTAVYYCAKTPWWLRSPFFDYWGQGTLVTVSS ... 2770

Here is the next item to consider.
So, HL161AN variant No. 9 (LC:N25S, HC:C32Y Q82S) (antibody, human IgG1, V domains shown, Variable domains only) VL: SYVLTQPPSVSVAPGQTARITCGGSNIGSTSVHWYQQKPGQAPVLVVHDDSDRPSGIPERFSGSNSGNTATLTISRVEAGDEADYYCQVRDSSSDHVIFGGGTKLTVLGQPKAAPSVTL VH: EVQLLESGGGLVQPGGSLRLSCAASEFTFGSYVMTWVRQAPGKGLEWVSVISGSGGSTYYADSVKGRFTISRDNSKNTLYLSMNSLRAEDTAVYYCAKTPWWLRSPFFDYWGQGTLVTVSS ? Its MFI was 2660
